B1: ANKRD40 (parent)
chain: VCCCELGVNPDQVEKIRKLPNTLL

- Variants of: B1
- Assay overview: protein stability index of a GFP-peptide fusion (GPS, HEK-293T) (PSI 1-6); higher = more stable;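 note: lentivirally expressed fusions sorted by FACS into six bins by GFP to DsRed ratio, PSI derived from sequencing read proportions per bin multiplied by bin number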
- Cond: c terminus: a fixed tail appended
Please mark criterion met if the recorded protein stability index is equal to or greater than 2, and criterion not met if it falls below.

Check out these entries, answers already filled in.
Variant spec: K18S
Category: criterion met

Variant spec: E5C
Category: criterion not met

Variant spec: E14C
Category: criterion not met

# check: protein stability index of "V1F" is greater than or equal to 2
criterion not met

# check: protein stability index of "Q12Y" is greater than or equal to 2
criterion not met

# check: protein stability index of "P10C" is greater than or equal to 2
criterion not met

# check: protein stability index of "K15M" is greater than or equal to 2
criterion not met

# check: protein stability index of "I16S" is greater than or equal to 2
criterion met

# check: protein stability index of "R17S" is greater than or equal to 2
criterion not met

# check: protein stability index of "R17P" is greater than or equal to 2
criterion met

# check: protein stability index of "P20Y" is greater than or equal to 2
criterion met

# check: protein stability index of "C2I" is greater than or equal to 2
criterion not met

# check: protein stability index of "I16T" is greater than or equal to 2
criterion met

# check: protein stability index of "L23Q" is greater than or equal to 2
criterion met

# check: protein stability index of "D11F" is greater than or equal to 2
criterion not met

# check: protein stability index of "L6H" is greater than or equal to 2
criterion met

# check: protein stability index of "V8W" is greater than or equal to 2
criterion not met

# check: protein stability index of "C4Q" is greater than or equal to 2
criterion met

# check: protein stability index of "E5Y" is greater than or equal to 2
criterion met

# check: protein stability index of "R17Y" is greater than or equal to 2
criterion not met

# check: protein stability index of "Q12T" is greater than or equal to 2
criterion not met

# check: protein stability index of "L23R" is greater than or equal to 2
criterion not met
